Assay: NCI Yeast Anticancer Drug Screen. Data for the sgs1 mgt1 strain (AID 161);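 note: 0% = growth of cultures given vehicle only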
Settings: S. cerevisiae sgs1 mgt1 strain, at 50.0 µM
Procedure: Growth inhibition of yeast strains with defined genetic alterations is measured as a screen for potential anti-cancer activity. Selected strains with alterations in DNA damage repair or cell cycle control were exposed to compounds and growth inhibition was measured relative to vehicle treated controls. The strain used in this assay is sgs1 mgt1
About 79,000 compounds went through this panel and 15% of them were active in at least one assay; those are over-represented in the sample as a whole. Calls of active or inactive are those of the source. Cut-off read from the data, not from the text of the source: active = growth inhibition above about 70%; inactive = the rest.
Lab note: assign the record to one of t for active, f for inactive

Study these solved cases before continuing.
In [3]: df
Out[3]:
                                   molecule  discrete_label
0  CCCNC(=O)/C=C\S(=O)CCC (stereo not drawn)               f
1  O=c1nc(NCC23CC4CC(CC(C4)C2)C3)ccn1C1OC(CO)C(O)C1O (stereo not drawn)               f
2                      N#CC(C#N)=CC(C#N)C#N               f
3  COc1ccc2[nH]cc(CN3CCC(CO)(c4ccccc4)CC3)c2c1               f
4  CCCCCCC(C#N)(CCN(C)C)c1ccccc1 (stereo not drawn)               f

stdin: Entry `CC(=O)Nc1ccc(/C=N/Nc2ccccc2)cc1` : call = ?
stdout: t

stdin: What about this molecule? `O=[N+]([O-])c1ccc(F)cc1`
stdout: f

stdin: How about `O=C(NNC(=O)c1ccncc1)c1ccncc1` ?
stdout: f

---

// values below are reported growth inhibition
Test: NCI Yeast Anticancer Drug Screen. Data for the mec2-1 strain (AID 157)
Conditions: S. cerevisiae mec2-1 strain, at 50.0 µM, stronger effect = higher value
The panel holds about 79,000 compounds, 15% with a hit somewhere; the sample as a whole holds those more often.
All answers are understood in %, so give the number only.

See these solved cases before continuing.
compound	quantity_kind	observed_value
O=C1c2ccccc2C(=O)N1/N=C\c1ccc(O)cc1	growth inhibition	-3.6
CC(C)(C)NC(=O)Nc1nccs1	growth inhibition	-7.9
ON=C(C1CCCCC1)C1CCCCC1	growth inhibition	-29.1
COc1ccc(C(O)C(O)(c2ccccc2)c2ccc(OC)cc2)cc1 (configuration not stated)	growth inhibition	-4.1
COc1ccc([N+](=O)[O-])c(OC)c1	growth inhibition	-19.1

stdin: growth inhibition lookup needed for CCc1ccccc1NC(=O)C(=O)C1C(=O)N(c2ccccc2)N=C1N (configuration not stated) , thanks.
stdout: -31.4

stdin: Repeat for the following compound: `CN/C=C(/OCc1ccccc1)c1ccc(O)c(O)c1`
stdout: 0.9

stdin: Now this one: `O=C(Nc1ccccc1)N1CC2(CN1)CNN(C(=O)Nc1ccccc1)C2`
stdout: -3.25

stdin: What about this compound? `CCOCCC(=O)O`
stdout: 6.3

---

Test: NCI Yeast Anticancer Drug Screen. Data for the mec2-1 strain (AID 157)
Details: S. cerevisiae mec2-1 strain, at 50.0 µM, stronger effect = higher value
Compounds without any hit were thinned out: in the full panel of roughly 79,000, 15% have a hit.
quantity_kind: growth inhibition (%)
Just the number please, in %, no unit attached.

Some entries whose results are on file:
>>> print(df.to_string())
                                   compound  scale_unit  observed_value
0     NCC1CCCCO1 (configuration not stated)           %             5.1
1  CCC(C)(N)C(=O)O (configuration not stated)           %            13.3
2  CCN(CC)C1Oc2cc3c(cc2C(c2cc(OC)c(O)c(OC)c2)C1C)OCO3 (configuration not stated)           %           -23.9

stdin: If you can, please state the reported growth inhibition value of `CCc1nc(-c2ccccc2)nc2c1nc(-c1cccc(C)c1)n2Nc1ccccc1` .
stdout: 3.1

stdin: One more compound: `CC(=O)c1ccc(Cl)c(-n2cccc2)c1`
stdout: -12.1

stdin: Continue with `CCOC(=O)CCCCCCCCC(=O)Nc1ccc(-n2[nH]c(=O)cc2C)cc1`
stdout: -31

stdin: Another compound to look at: `Cc1ccccc1C=O`
stdout: -32.6

---

Assay: NCI Yeast Anticancer Drug Screen. Data for the sgs1 mgt1 strain (AID 161);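 note: 0% = growth of cultures given vehicle only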
Conditions: S. cerevisiae sgs1 mgt1 strain, at 50.0 µM, stronger effect = higher value
The panel holds about 79,000 compounds, 15% with a hit somewhere; the sample as a whole holds those more often.
This listing pairs compounds with measured growth inhibition.
A number alone suffices; assume %.

compound	quantity_kind	observed_value
CC(C)(O)c1cc2nc3ccccc3nc2n1CCO	growth inhibition	8.45
COc1ccccc1N/N=c1\c2nc3ccccc3nc1n(-c1ccccc1C)c(=S)n2-c1ccccn1	growth inhibition	16.3
Cc1cc(Br)ccc1NC1=CC(=O)C(=O)c2ccccc21	growth inhibition	-3.4

Now consider a different compound.
stdin: Item under review: `COC(=O)CCOc1ccccc1` . Reported growth inhibition?
stdout: 0.25

---

Test: NCI Yeast Anticancer Drug Screen. Data for the cln2 rad14 strain (AID 165);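 note: 0% = growth equal to vehicle treated cultures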
Conditions: S. cerevisiae cln2 rad14 strain, at 50.0 µM, stronger effect = higher value
About 79,000 compounds went through this panel and 15% of them were active in at least one assay; those are over-represented in the sample as a whole.
quantity_kind: growth inhibition (%)
Unit % implied. Number only.

In [3]: df
Out[3]:
                                   compound      quantity_kind  scale_unit  observed_value
0  COc1cc2c(cc1OC)C(=O)C1(CO)COC(=O)C1C2 (configuration not stated)  growth inhibition           %            -1.4
1                    O=C(O)CCc1cccc2ccccc12  growth inhibition           %            14.4
2  CCN(C)c1nc(N(C)CC)c2nc(N(C)CC)nc(N(C)CC)c2n1  growth inhibition           %             4.5
3  COc1ccc(Cl)cc1C(O)CN1CCCCC1 (configuration not stated)  growth inhibition           %           -37.5
4                    CC(=O)c1ccc(Cl)c(Cl)c1  growth inhibition           %            14.9

stdin: Form field: reported growth inhibition of `O=NNc1ccc(Oc2ccccc2)cn1`
stdout: -9

stdin: Likewise for O=S(=O)(OCC1CC2CCC1CC2)c1ccc(Br)cc1 (configuration not stated) ?
stdout: 0.8

stdin: Also `C(#CCN1CCOCC1)CCCN1CCOCC1` ?
stdout: -17.4

stdin: What would you report for CC(C)(C)OC(=O)C1C(=O)CC(c2ccccc2)C1c1ccccc1 (configuration not stated) ?
stdout: -7.8

stdin: Would you kindly repeat that for `COc1ccc(N=c2nc3n4c(c(Br)cc(Br)c4n2)NC(C(Br)(Br)Br)=N3)cc1` ?
stdout: -15.3

stdin: Now the same for CC1CC(O)CC(C)(C)C1.CC1CC(O)CC(C)(C)C1.CC1CC(O)CC(C)(C)C1.CC1CC(O)CC(C)(C)C1.[Ti] (configuration not stated)
stdout: 15.1

stdin: Please answer likewise for `O=c1[nH]ncc2ccccc12`
stdout: -53.5

---

Assay: NCI Yeast Anticancer Drug Screen. Data for the mec2-1 strain (AID 157)
Conditions: S. cerevisiae mec2-1 strain, at 50.0 µM, stronger effect = higher value
The panel holds about 79,000 compounds, 15% with a hit somewhere; the sample as a whole holds those more often.
quantity_kind: growth inhibition (%)
# number only, unit % dropped from output

stdin: Entry `COc1ccc(-n2[nH]c3c(cnc4ccccc43)c2=O)cc1` has what growth inhibition?
stdout: -33.9

stdin: What do you get for `CCOC(=O)C1=C(C(=O)c2ccc(OC)cc2)C(c2cccc([N+](=O)[O-])c2)C(C(=O)c2ccc(OC)cc2)=C(C(=O)OCC)N1` ?
stdout: -1.6

stdin: Could you do the same for `N#CC(=S)Nc1ccc(Cl)c(Cl)c1` , please?
stdout: 27.9

stdin: Next up: CCCC(=O)OCC1OC2OC(C)(C)OC2C2OC(C)(C)OC12 (stereo not given)
stdout: -2.55

stdin: Let us now turn to `CCOC(=O)c1c(-c2ccccc2)nn(CC(N)=O)c1CO`
stdout: -5.15

stdin: Same thing, different compound: `CCOC(=O)n1oc2ccc(Br)cc2c1=O`
stdout: 58

stdin: Can you check O=[N+]([O-])c1ccc(SC2OC(CO)C(O)C(O)C2O)c([N+](=O)[O-])c1 (stereo not given) next?
stdout: 29.4

stdin: Now consider `CCOc1nc(OCC)c2cnn(C)c2n1` .
stdout: 1.75

stdin: How about this compound: `[N-]=[N+]=Nc1ccc(S(=O)(=O)Oc2cc(OS(=O)(=O)c3ccc(N=[N+]=[N-])cc3)cc(OS(=O)(=O)c3ccc(N=[N+]=[N-])cc3)c2)cc1`
stdout: 16.1

stdin: Request: `Clc1ccccc1-c1nc(-c2ccncc2)no1`
stdout: -14.9
